The entries below are paired with their reported pIC50.
tested_target: SHP2 (full length) (Homo sapiens, UniProt Q06124)
Construct: SHP2 (full length, diluted to 100 pM final concentration in reaction buffer, BPS bioscience, US); purchased BPS bioscience, US
Sequence (Q06124 1-593): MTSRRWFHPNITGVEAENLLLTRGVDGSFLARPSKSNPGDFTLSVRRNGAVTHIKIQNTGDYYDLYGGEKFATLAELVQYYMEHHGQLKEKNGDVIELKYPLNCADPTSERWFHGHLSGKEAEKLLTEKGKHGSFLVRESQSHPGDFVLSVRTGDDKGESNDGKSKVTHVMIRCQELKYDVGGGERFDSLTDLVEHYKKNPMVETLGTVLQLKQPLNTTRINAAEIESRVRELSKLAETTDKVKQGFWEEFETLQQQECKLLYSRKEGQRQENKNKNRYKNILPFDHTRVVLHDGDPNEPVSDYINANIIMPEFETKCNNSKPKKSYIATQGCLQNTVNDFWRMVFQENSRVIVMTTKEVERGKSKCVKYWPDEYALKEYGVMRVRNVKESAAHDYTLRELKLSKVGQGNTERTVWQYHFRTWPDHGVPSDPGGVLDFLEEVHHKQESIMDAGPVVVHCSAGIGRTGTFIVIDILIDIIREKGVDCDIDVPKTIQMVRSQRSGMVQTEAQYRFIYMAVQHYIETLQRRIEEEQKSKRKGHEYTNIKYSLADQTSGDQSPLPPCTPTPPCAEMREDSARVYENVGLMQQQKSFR
assay_name: Phosphatase assay (PTPase assay) with DiFMUP substrate
Format: biochemical
experimental_conditions: SHP2 activated with SHP2 activating peptide; DiFMUP 80 μM, 2 hours; fluorescence; read-out: IC50 (PTPase aS say)
pIC50: −log10 of the molar value.

Some entries whose results are on file:
C[C@@H]1OCC2(CCN(c3cnc(Sc4ccc5ncn(Cc6ccccn6)c(=O)c5c4Cl)cn3)CC2)[C@@H]1N [Example 88] : > 8.52
N[C@@H]1c2cccnc2CC12CCN(c1cnc(Sc3ccc4ncn(Cc5ccncn5)c(=O)c4c3Cl)cn1)CC2 [Example 141] : > 8.52
N[C@@H]1c2cccnc2CC12CCN(c1cnc(Sc3ccc4ncn(CCCO)c(=O)c4c3Cl)cn1)CC2 [Example 109] : > 8.52
COCCn1cnc2ccc(Sc3cnc(N4CCC5(CC4)Cc4nc(Cl)sc4[C@H]5N)cn3)c(Cl)c2c1=O [Example 161] : > 8.52
CC(=O)Cn1cnc2ccc(Sc3cnc(N4CCC5(CC4)Cc4ncccc4[C@H]5N)cn3)c(Cl)c2c1=O [Example 112] : > 8.52

Read the next record carefully.
**Q:** Which pIC50 is listed for COCCCn1cnc2ccc(Sc3cnc(N4CCC5(CC4)CO[C@@H](C)[C@H]5N)cn3)c(Cl)c2c1=O [Example 94] ?
**A:** > 8.52

* * *

Documented pIC50 across a set of compounds
tested_target: SHP2 (full length) (Homo sapiens)
Construct: SHP2 (full length, diluted to 100 pM final concentration in reaction buffer, BPS bioscience, US); purchased BPS bioscience, US
Sequence (Q06124 1-593): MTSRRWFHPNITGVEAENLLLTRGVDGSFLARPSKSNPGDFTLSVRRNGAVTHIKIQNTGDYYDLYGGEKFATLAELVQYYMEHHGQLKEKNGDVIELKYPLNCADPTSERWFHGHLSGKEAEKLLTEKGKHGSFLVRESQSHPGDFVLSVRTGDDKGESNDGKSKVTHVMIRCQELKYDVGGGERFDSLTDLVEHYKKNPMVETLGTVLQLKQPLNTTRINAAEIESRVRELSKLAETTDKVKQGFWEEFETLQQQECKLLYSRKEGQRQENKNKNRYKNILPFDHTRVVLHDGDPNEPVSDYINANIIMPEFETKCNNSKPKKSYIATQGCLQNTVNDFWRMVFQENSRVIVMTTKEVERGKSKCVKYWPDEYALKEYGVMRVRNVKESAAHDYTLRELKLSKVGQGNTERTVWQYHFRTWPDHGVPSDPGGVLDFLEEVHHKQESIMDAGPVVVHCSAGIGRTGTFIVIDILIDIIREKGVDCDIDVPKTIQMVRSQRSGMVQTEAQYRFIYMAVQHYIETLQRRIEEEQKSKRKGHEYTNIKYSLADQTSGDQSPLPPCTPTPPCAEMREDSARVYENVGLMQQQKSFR
assay_name: Phosphatase assay (PTPase assay) with DiFMUP substrate
Type: biochemical
experimental_conditions: SHP2 activated with SHP2 activating peptide; DiFMUP 80 μM, 2 hours; fluorescence; read-out: IC50 (PTPase aS say)
pIC50: −log10 of the molar value.

Observe how each entry below is paired with its result.
C[C@@H]1OCC2(CCN(c3cnc(Sc4ccc5c(=O)n(Cc6ccccc6)cnc5c4Cl)cn3)CC2)[C@@H]1N [Example 132] : > 8.52
COCCn1cnc2ccc(Sc3ccc(N4CCC5(CC4)CO[C@@H](C)[C@H]5N)cn3)c(Cl)c2c1=O [Example 181] : 7.00 to 8.52
C[C@@H]1OCC2(CCN(c3cnc(Sc4ccc5ncn(Cc6cccc(C#N)c6)c(=O)c5c4Cl)cn3)CC2)[C@@H]1N [Example 31] : > 8.52
C[C@@H]1OCC2(CCN(c3cnc(Sc4ccc5ncn(Cc6ccn(C)n6)c(=O)c5c4Cl)cn3)CC2)[C@@H]1N [Example 53] : 7.00 to 8.52
N[C@@H]1c2cccnc2CC12CCN(c1cnc(Sc3ccc4ncn(CC5(F)COC5)c(=O)c4c3Cl)cn1)CC2 [Example 140] : > 8.52

# evaluate next
**Q:** Which pIC50 is reported with SHP2 (full length) (Homo sapiens) for this entry: CC(C)(O)Cn1cnc2ccc(Sc3cnc(N4CCC5(CC4)Cc4scnc4[C@@H]5N)cn3)c(Cl)c2c1=O [Example 152] ?
**A:** 7.00 to 8.52

* * *

tested_target: SHP2 (full length) (Homo sapiens)
Construct: SHP2 (full length, diluted to 100 pM final concentration in reaction buffer, BPS bioscience, US); purchased BPS bioscience, US
Sequence (Q06124 1-593): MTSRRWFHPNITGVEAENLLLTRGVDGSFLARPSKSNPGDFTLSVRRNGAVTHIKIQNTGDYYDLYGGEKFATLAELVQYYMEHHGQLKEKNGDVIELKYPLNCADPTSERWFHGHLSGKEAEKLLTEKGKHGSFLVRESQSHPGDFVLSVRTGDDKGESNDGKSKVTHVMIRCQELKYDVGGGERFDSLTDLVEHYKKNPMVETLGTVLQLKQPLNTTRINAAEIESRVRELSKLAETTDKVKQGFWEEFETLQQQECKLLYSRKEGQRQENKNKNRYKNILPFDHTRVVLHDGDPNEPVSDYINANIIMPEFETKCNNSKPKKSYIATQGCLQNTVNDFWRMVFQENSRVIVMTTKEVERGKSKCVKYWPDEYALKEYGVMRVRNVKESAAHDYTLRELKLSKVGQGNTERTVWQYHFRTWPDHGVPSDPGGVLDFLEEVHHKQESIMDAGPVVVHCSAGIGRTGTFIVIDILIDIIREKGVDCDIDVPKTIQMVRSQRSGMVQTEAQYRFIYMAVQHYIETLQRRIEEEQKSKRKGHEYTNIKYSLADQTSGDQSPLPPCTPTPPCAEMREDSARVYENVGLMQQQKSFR
assay_name: Phosphatase assay (PTPase assay) with DiFMUP substrate
Type: biochemical
experimental_conditions: SHP2 activated with SHP2 activating peptide; DiFMUP 80 μM, 2 hours; fluorescence; read-out: IC50 (PTPase aS say)
pIC50: −log10 of the molar value.
Entries and their pIC50

Solved cases (2 shown):
C[C@@H]1OCC2(CCN(c3cnc(Sc4ccc5ncn(Cc6ccccc6F)c(=O)c5c4Cl)cn3)CC2)[C@@H]1N : > 8.52
C[C@@H]1OCC2(CCN(c3cnc(Sc4ccc5ncn(CC6(F)COC6)c(=O)c5c4Cl)cn3)CC2)[C@@H]1N : > 8.52

**Q:** For the compound `C[C@@H]1OCC2(CCN(c3cnc(Sc4ccc5ncn(CCN6CCCC6)c(=O)c5c4Cl)cn3)CC2)[C@@H]1N` , what pIC50 is on record?
**A:** 7.00 to 8.52

**Q:** Same read-out for C[C@@H]1OCC2(CCN(c3cnc(Sc4ccc5ncn(CC(O)CF)c(=O)c5c4Cl)cn3)CC2)[C@@H]1N (stereo partly shown) ?
**A:** 7.00 to 8.52

* * *

System: phospho-ERK in MIA PaCa2 or H358 cells
assay_name: Phospho-ERK assay (AlphaLisa)
Assay type: cell-based
experimental_conditions: 1.5 h, MIA PaCa2 or H358 cells, compound incubated 1.5 hours; read-out: IC50 (p-ERK)
property_measured: IC50

Use the examples below as a reference point.
Cn1c(N2CCN(C[C@H](N)Cc3ccncc3)CC2)nc(N)c(Sc2cccc(Cl)c2Cl)c1=O : 45 to 1500 nM
C[C@@H]1OCC2(CCN(c3cnc(Sc4ccc5ncn(Cc6nc7ccccc7o6)c(=O)c5c4Cl)cn3)CC2)[C@@H]1N : < 45 nM
COCCn1cnc2ccc(Sc3cnc(N4CCC5(CC4)Cc4ccc(OC)cc4[C@H]5N)cn3)c(Cl)c2c1=O : < 45 nM

**Q:** Looking for the measured IC50 of N[C@@H]1c2ccccc2CC12CCN(c1cnc(Sc3ccc4ncn(CC5CCOC5)c(=O)c4c3Cl)cn1)CC2 (stereo partly drawn) , can you help?
**A:** < 45 nM

**Q:** What do you have for `C[C@@H]1OCC2(CCN(c3cnc(Sc4ccc5ncn(CC(F)(F)F)c(=O)c5c4Cl)cn3)CC2)[C@@H]1N` ?
**A:** 45 to 1500 nM

**Q:** Ok, now `Cn1c(N2CCC(C)(N)CC2)nc(N)c(Sc2cccc(C(=O)O)c2Cl)c1=O`
**A:** > 1500 nM

**Q:** Would you kindly repeat that for C[C@@H]1OCC2(CCN(c3cnc(Sc4ccc5nc(OC6CCOC6)n(C)c5c4Cl)cn3)CC2)[C@@H]1N (stereo partly drawn) ?
**A:** < 45 nM

**Q:** Thanks! And `COCCn1cnc2ccc(Sc3ncc(N4CCC5(CC4)Cc4scnc4[C@H]5N)nc3N)c(Cl)c2c1=O` ?
**A:** 45 to 1500 nM

**Q:** And `C[C@@H]1OCC2(CCN(c3cnc(Sc4ccc5nc(Oc6cccnc6)[nH]c5c4Cl)cn3)CC2)[C@@H]1N` ?
**A:** < 45 nM
